Where do these numbers come from? They come from patent US20220080036A1.

# Experimental target: T1, IsdH (iron-regulated surface determinant protein H), recombinant (Staphylococcus aureus)
# T1 construct: also called recombinant IsdH
# T1 sequence (Q2FG07 41-864): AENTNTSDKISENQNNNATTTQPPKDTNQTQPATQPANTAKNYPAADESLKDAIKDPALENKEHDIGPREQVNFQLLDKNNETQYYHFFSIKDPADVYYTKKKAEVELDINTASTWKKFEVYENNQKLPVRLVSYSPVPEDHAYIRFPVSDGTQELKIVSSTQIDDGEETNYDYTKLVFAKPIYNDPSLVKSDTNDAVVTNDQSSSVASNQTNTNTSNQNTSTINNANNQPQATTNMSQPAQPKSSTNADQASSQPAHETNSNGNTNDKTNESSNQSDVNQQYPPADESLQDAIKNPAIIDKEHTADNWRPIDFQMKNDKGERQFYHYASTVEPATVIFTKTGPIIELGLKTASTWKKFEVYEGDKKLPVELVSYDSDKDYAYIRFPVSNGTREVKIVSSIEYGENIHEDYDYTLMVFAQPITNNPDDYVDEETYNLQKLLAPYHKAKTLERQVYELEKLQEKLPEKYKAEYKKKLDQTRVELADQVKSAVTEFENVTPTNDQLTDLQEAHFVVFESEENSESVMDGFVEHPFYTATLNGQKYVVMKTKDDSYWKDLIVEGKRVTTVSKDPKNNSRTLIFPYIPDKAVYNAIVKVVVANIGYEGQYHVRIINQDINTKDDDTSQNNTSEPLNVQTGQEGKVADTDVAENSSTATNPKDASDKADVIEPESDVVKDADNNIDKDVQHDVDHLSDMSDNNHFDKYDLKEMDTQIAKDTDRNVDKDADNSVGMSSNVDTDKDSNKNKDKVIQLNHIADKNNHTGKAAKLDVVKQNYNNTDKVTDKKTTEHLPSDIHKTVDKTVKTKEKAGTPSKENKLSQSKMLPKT
# Assay procedure: ELISA on coated recombinant antigen, half-maximal binding

Binder: STAU-389 (antibody, V domains shown) VH: QVQLVQSGAEVKQSGSSLKVSCKVSGGNLRSYGISWVRQAPGQGLEWMGVIIPIFGAPTYAQKFQGRVTFVADDGNNVVFMELSSLRSEDTAVYYCARDWPSITVAVDAINFAMDVWGQGTLVTVSS VL: QSALTQPRSVSGSPGQSVTISCTGTNNDVGSYDHVSWYQQHPGKAPKFIIYDVSTRPSGVPDRFSGSKSDNTASLTISGLQAEDEADYYCCSFAGSYTYVFGTGTTVTVL
EC50: 0.34 µg/mL
//
Binder: STAU-139 (antibody, V domains shown) VH: EVQLVQSGAEVKKPGESLKISCKGSGYSFTSYWIGWVRQMPGKGLEWMGIIYPGDSDTRYSPSFQGQVTISADKSISTAYLQWSSLKASDTAMYYCARPPGLRGDAFDIWGQGTLVTVSS VL: QSALTQPPSASGSPGQSVTISCTGTSSDVGGYNYVSWYQQHPGKAPKLMIYEVSKRPSGVPDRFSGSKSGNTASLTVSGLQAEDEADYYCSSYAGSNNLVFGGGTKLTVL
EC50: 2.7 µg/mL
